As shown below, each of these compounds has a reported viability at 5 µM value.
# Test system: U-87 MG
# ASSAY NOTES: Antiproliferative activity against human U-87 MG cells assessed as cell viability at 5 uM measured after 24 to 48 hrs by MTT assay relative to control
# Assay type: functional, U-87MG ATCC
# TEST CONTEXT: time 24-48 hrs, read-out: Activity

CHEM SMILES: COc1ccc(-c2nc(C)c(C(=O)CSc3nc(N)c(C#N)c(-c4ccc(Cl)cc4)n3)s2)cc1
viability at 5 µM / %: 51.4
//
CHEM SMILES: Cc1nc(-c2ccccc2)sc1C(=O)CSc1nc(-c2ccc(Cl)cc2)c(C#N)c(=O)[nH]1
viability at 5 µM / %: 90.9
//
CHEM SMILES: COc1ccc(-c2nc(SCC(=O)c3sc(-c4ccccc4)nc3C)[nH]c(=O)c2C#N)cc1
viability at 5 µM / %: 97.3
//
CHEM SMILES: COc1ccc(-c2nc(C)c(C(=O)CSc3nc(-c4ccc5c(c4)OCO5)c(C#N)c(=O)[nH]3)s2)cc1
viability at 5 µM / %: 100
//
CHEM SMILES: Cc1nc(-c2ccc(Cl)cc2)sc1C(=O)CSc1nc(-c2ccc(Cl)c(Cl)c2)c(C#N)c(=O)[nH]1
viability at 5 µM / %: 101
//
CHEM SMILES: COc1ccc(-c2nc(C)c(C(=O)CSc3nc(-c4ccc(Cl)c(Cl)c4)c(C#N)c(=O)[nH]3)s2)cc1
viability at 5 µM / %: 101
//
CHEM SMILES: Cc1nc(-c2ccccc2)sc1C(=O)CSc1nc(N)c(C#N)c(-c2ccccc2)n1
viability at 5 µM / %: 103

Where these numbers come from: ChEMBL document CHEMBL4706654
